Attribute: Ki
Target: human mu opioid receptor (Homo sapiens, UniProt P35372)
Sequence (P35372 whole entry): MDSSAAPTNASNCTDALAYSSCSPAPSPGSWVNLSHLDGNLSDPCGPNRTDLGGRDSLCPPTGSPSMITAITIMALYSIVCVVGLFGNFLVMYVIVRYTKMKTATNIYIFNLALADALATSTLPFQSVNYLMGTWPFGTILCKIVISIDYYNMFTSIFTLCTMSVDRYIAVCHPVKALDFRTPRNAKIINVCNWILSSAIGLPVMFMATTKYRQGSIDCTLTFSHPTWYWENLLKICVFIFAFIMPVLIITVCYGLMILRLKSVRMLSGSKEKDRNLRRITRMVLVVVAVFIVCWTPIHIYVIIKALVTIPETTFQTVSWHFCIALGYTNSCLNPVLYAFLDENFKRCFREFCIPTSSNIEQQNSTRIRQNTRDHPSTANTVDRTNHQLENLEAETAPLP
Assay: Radioligand binding assay, [3H]-Diprenorphine displacement, human mu opioid receptor

CCC1(CC)c2cc(C(N)=O)ccc2C[C@H](OC)[C@H]1NCC[C@@H](CC1CCCCC1)C(=O)O [Example 10-G] = 0.251 nM

Next:
What does the record list as Ki for CCC1(CC)c2cc(O)ccc2C[C@H](OC)[C@H]1NCC[C@H](CC1CCCCC1)C(=O)O [Example 12] ?
0.2 nM

---

Attribute: ID50, dose required for 50% reversal of the effects of loperamide
Tested on: loperamide-induced delayed gastric emptying
Test: Rat gastric emptying assay, reversal of loperamide-induced delayed gastric emptying
Assay type: in vivo
Conditions: administered orally, loperamide 1 mg/kg subcutaneous
Please give a number only; it is taken to be in mg/kg.

# example entries with known answers
CCCCC[C@@H](CCN[C@@H]1[C@@H](OC)Cc2ccc(C(N)=O)cc2C1(CC)CC)C(=O)O = 0.10
CCC1(CC)c2cc(C(N)=O)ccc2C[C@H](OC)[C@H]1NCC[C@@H](CC1CCCCC1)C(=O)O = 0.12
CCC1(CC)c2cc(C(N)=O)ccc2C[C@H](OC)[C@H]1NCC[C@H](CC1CCCCC1)C(=O)O = 0.09

What does the record list as ID50, dose required for 50% reversal of the effects of loperamide for CCC1(CC)c2cc(O)ccc2C[C@H](OC)[C@H]1NCC[C@H](CC1CCCCC1)C(=O)O ?
0.05
